Please go through the items and note down their Emax.
- assay system: Glucose-dependent insulinotropic receptor (Homo sapiens)
- Sequence (whole entry): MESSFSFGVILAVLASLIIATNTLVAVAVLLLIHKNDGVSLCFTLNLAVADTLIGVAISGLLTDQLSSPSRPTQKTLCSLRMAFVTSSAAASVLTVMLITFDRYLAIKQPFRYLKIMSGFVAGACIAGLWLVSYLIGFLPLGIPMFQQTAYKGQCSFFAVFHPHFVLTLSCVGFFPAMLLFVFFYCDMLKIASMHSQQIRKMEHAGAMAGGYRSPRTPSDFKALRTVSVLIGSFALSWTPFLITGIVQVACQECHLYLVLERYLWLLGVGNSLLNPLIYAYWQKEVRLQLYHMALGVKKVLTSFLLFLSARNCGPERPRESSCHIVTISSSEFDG
- assay name: Agonist activity at human GPR119 by HTRF cAMP assay relative to AR231453
- Assay type: functional
Hi! Could you send only the number? It should be in %, unit omitted.

[in] What Emax value was documented for this molecule, C[C@@H](CF)OC(=O)N1CCC(O[C@H]2CC[C@H](Oc3cnc(S(C)(=O)=O)cn3)CC2)CC1 ?
[out] 105

[in] // query: CS(=O)(=O)c1cnc(O[C@H]2CC[C@H](OC3CCN(C(=O)OC4CCOC4)CC3)CC2)cn1 (some centres not stated)
[out] 105

[in] // query: Cc1nc(S(C)(=O)=O)ccc1O[C@H]1CC[C@H](OC2CCN(C(=O)OC(C)C)CC2)CC1
[out] 108

[in] // query: C[C@H](OC(=O)N1CCC(O[C@H]2CC[C@H](Oc3cnc(S(C)(=O)=O)cn3)CC2)CC1)C(F)(F)F
[out] 112

[in] // query: CS(=O)(=O)c1cnc(O[C@H]2CC[C@H](OC3CCN(CC(F)(F)F)CC3)CC2)cn1
[out] 91

[in] // query: CC(C)(C)OC(=O)N1CCC(O[C@H]2CC[C@H](Oc3ccc(S(C)(=O)=O)nn3)CC2)CC1
[out] 97

[in] // query: COc1c(Nc2ccc(S(C)(=O)=O)nc2C)ncnc1OC1CCN(C(=O)OC(C)C)CC1
[out] 75

[in] // query: CC(C)OC(=O)N1CCC(O[C@H]2CC[C@H](Oc3cnc(S(C)(=O)=O)cn3)CC2)CC1
[out] 110

[in] // query: Cc1nc(O[C@H]2CC[C@H](OC3CCN(C(=O)OC(C)(C)C)CC3)CC2)ccc1C(=O)N(C)C
[out] 121

[in] // query: CC(C)(C)OC(=O)N1CCC(O[C@H]2CC[C@H](Oc3cnc(S(C)(=O)=O)cn3)CC2)CC1
[out] 110

[in] // query: CC(C)S(=O)(=O)c1cnc(O[C@H]2CC[C@H](OC3CCN(C(=O)OC(C)(C)C)CC3)CC2)cn1
[out] 109

[in] // query: CC(C)(C)OC(=O)N1CCC(O[C@H]2CC[C@H](Oc3ccc(C#N)cc3)CC2)CC1
[out] 116

[in] // query: C[C@H](CF)OC(=O)N1CCC(O[C@H]2CC[C@H](Oc3cnc(S(C)(=O)=O)cn3)CC2)CC1
[out] 108

[in] // query: CC(C)(C)OC(=O)N1CCC(O[C@H]2CC[C@@H](Oc3ccc(S(C)(=O)=O)cc3)CC2)CC1
[out] 120

[in] // query: CCC(F)(F)C(=O)N1CCC(O[C@H]2CC[C@H](Oc3cnc(S(C)(=O)=O)cn3)CC2)CC1
[out] 107

[in] // query: CS(=O)(=O)c1cnc(O[C@H]2CC[C@H](OC3CCN(CC4(C(F)(F)F)CCC4)CC3)CC2)cn1
[out] 96

[in] // query: C[C@@H](OC(=O)N1CCC(O[C@H]2CC[C@H](Oc3cnc(S(C)(=O)=O)cn3)CC2)CC1)C(F)(F)F
[out] 106
